# System: HepG2
# Assay explanation: Anticancer activity against human HepG2 cells by MTT assay
# Assay type: functional, cell-based
pIC50: −log10 of the molar value.
Endpoint: pIC50

Documented pIC50 of CN1C[C@H](c2ccc(Cl)cc2Cl)[C@@H](C(=O)c2cc3ccccc3[nH]2)C12C(=O)Nc1ccccc12 (stereo partly specified) : < 4.30

====

Item-by-item account of MIC
# System: Klebsiella pneumoniae
# Assay explanation: Antibacterial activity against Klebsiella pneumoniae ATCC 29655
# Type: functional
Write the value in µg/mL as a bare number.

Study these solved cases before continuing.
CN(C)[C@@H]1C(O)=C(C(N)=O)C(=O)[C@@]2(O)C(O)=C3C(=O)c4c(O)cccc4[C@@](C)(O)[C@H]3C[C@@H]12	16
O=C1c2c(Cl)cccc2NC2(C(=O)Nc3ccc(Br)cc32)N1Nc1ccccc1 (centres undefined)	4
O=C1c2c(Cl)cccc2NC2(C(=O)Nc3ccc([N+](=O)[O-])cc32)N1Nc1ccccc1 (centres undefined)	16

Shifting focus to the compound that follows.
Documented MIC of O=C1c2ccccc2NC2(C(=O)Nc3ccc([N+](=O)[O-])cc32)N1Nc1ccccc1 (centres undefined) : 8
